study_system: FRMPD4, Q14CM0
Sequence (Q14CM0 67-160): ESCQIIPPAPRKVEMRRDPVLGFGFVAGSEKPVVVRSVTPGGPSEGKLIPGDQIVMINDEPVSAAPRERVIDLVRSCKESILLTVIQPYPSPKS
method: holdup assay
Set-up: key: below the threshold = too weak to quantify, mostly under pKd 3.1 to 4
condition_label: plain residues with an end cap or a label only (N-terminal biotin on a linker: ahx)
endpoint: pKd

Worked examples follow.
INSERT INTO results (binder, endpoint, result) VALUES
  ('PSASCAVTAA [PDLIM4, P50479;P50479-2]', 'pKd', 'below the threshold'),
  ('TVICWPGSLV [LNX2, Q8N448]', 'pKd', 'below the threshold'),
  ('GYDWGPATDL [TJP3, O95049]', 'pKd', 3.83),
  ('ESLLLGPSNF [SHROOM4, Q9ULL8]', 'pKd', 'below the threshold'),
  ('LSDPSVSTVV [GRIN1, Q05586;Q05586-2]', 'pKd', 'below the threshold');

Please give pKd, item by item, for the list that follows.
1. RRRKRKRTYL [HPV49-L2, P36762]
2. HNAFLSVTTV [PDZRN4, Q6ZMN7]
3. NRKREIFSNF [NHERF2, Q15599]
4. RAVEEEESRF [PSCDBP, O60759]
5. SDSSGQEYSL [KCTD3, Q9Y597]

Ans:
1: 3.53; 2: 3.5; 3: below the threshold; 4: below the threshold; 5: 4.69
